assay-text: n-Octanol-buffer distribution coefficient, log D of the compound at pH 7.4 after 1 hr by shake flask method
Assay type: physicochemical
Each entry below lists one item and its recorded logD at 1 h value.
quantity-measured: logD at 1 h

• COC(=O)CC[C@H](NC(=O)c1c(C)[nH]c(/C=C2\C(=O)Nc3ccc(C(=O)N[C@H](Cc4ccccc4)C(=O)O)cc32)c1C)C(=O)OC = -0.32
• COC(=O)[C@@H](Cc1ccccc1)NC(=O)c1ccc2c(c1)/C(=C/c1[nH]c(C)c(C(=O)N[C@@H](Cc3ccccc3)C(=O)O)c1C)C(=O)N2 = 1.28
• COC(=O)CC[C@@H](NC(=O)c1ccc2c(c1)/C(=C/c1[nH]c(C)c(C(=O)N[C@H](CCC(=O)OC)C(=O)OC)c1C)C(=O)N2)C(=O)OC = 3.36
